The measured values listed here are drawn from paper PMC6001238.

# Test system: MRSA KS1
# test_details: MIC, broth microdilution, MRSA KS1
# Type: cell-based, Staphylococcus aureus
# condition_details: MRSA KS1; ratio of MIC of vancomycin and MIC of analogue
observable: MIC-fold improvement vs. vancomycin

[[record]]
compound = "CN[C@H](CC(C)C)C(=O)N[C@H]1C(=O)N[C@@H](CC(N)=O)C(=O)N[C@H]2C(=O)N[C@H]3C(=O)N[C@H](C(=O)N[C@H](C(=O)NCCNC(=O)/C=C/c4ccc(NS(=O)(=O)c5ccc(C)cc5)cc4)c4cc(O)cc(O)c4-c4cc3ccc4O)[C@H](O)c3ccc(c(Cl)c3)Oc3cc2cc(c3O[C@@H]2O[C@H](CO)[C@@H](O)[C@H](O)[C@H]2O[C@H]2C[C@](C)(N)[C@H](O)[C@H](C)O2)Oc2ccc(cc2Cl)[C@H]1O"
tested_system = "MRSA KS1"
observable = "MIC-fold improvement vs. vancomycin"
endpoint_result = 4

[[record]]
compound = "CCCCCCn1cc(-c2ccc(NC(=O)CNC(=O)C3NC(=O)C4NC(=O)C(NC(=O)C5NC(=O)C(CC(N)=O)NC(=O)C(NC(=O)C(CC(C)C)NC)C(O)c6ccc(c(Cl)c6)Oc6cc5cc(c6OC5OC(CO)C(O)C(O)C5OC5CC(C)(N)C(O)C(C)O5)Oc5ccc(cc5Cl)C4O)c4ccc(O)c(c4)-c4c(O)cc(O)cc43)cc2)nn1 (stereo not drawn)"
tested_system = "MRSA KS1"
observable = "MIC-fold improvement vs. vancomycin"
endpoint_result = 4

[[record]]
compound = "CCCCCCCc1ccc(C(=O)NCCCNC(=O)C2NC(=O)C3NC(=O)C(NC(=O)C4NC(=O)C(CC(N)=O)NC(=O)C(NC(=O)C(CC(C)C)NC)C(O)c5ccc(c(Cl)c5)Oc5cc4cc(c5OC4OC(CO)C(O)C(O)C4OC4CC(C)(N)C(O)C(C)O4)Oc4ccc(cc4Cl)C3O)c3ccc(O)c(c3)-c3c(O)cc(O)cc32)cc1 (stereo not drawn)"
tested_system = "MRSA KS1"
observable = "MIC-fold improvement vs. vancomycin"
endpoint_result = 1

